- assay.text: conditioned avoidance-escape procedure (modified pole-climb avoidance)
- Format: in vivo
- condition.label: oral; suppression of escape response; male Wistar rat; read-out: Oral ED50 Escape
- Protocol: In order to further assess their usefulness, representative compounds of the invention were tested in a conditioned avoidance-escape procedure. In this test*, an animal (male Wistar rat) is conditioned to respond to a stimulus in order to avoid an unpleasant electrical shock. Should the animals fail to give the response in order to avoid the shock, an escape route is available so that it can escape the shock once it is delivered. […]
reported.property: ED50 (mg/kg)
Lab book: enter the figure in mg/kg, no units written.

INSERT INTO measurements (molecule, reported_property, observed_value) VALUES
  ('CCn1nc(C)c2c1C1=NC(C)CN1C(C)=N2 (stereo not drawn) [R1=C2H5, R2=CH3, R3=CH3, R4=H, R5=CH3]', 'ED50', 15),
  ('CCC1=Nc2c(C)nn(C)c2C2=NC(C)CN12 (stereo not drawn) [R1=CH3, R2=CH3, R3=C2H5, R4=H, R5=CH3]', 'ED50', 66),
  ('Cc1nn(C)c2c1N=C(C1CC1)N1CC(C)N=C21 (stereo not drawn)', 'ED50', 110);

Would you kindly share the measured ED50 for CCCn1nc(C)c2c1C1=NC(C)CN1C(C)=N2 (stereo not drawn) [R1=n-C3H7, R2=CH3, R3=CH3, R4=H, R5=CH3] ? 90

What do you get for CCc1nc2c(C)nn(C)c2c2nc(C)cn12 ? 45

What do you get for CC1=Nc2c(C)nn(C)c2C2=N[C@@H](C)CN12 [R1=CH3, R2=CH3, R3=CH3, R4=H, R5=CH3 (S-isomer)] ? 20

What do you get for CC1=Nc2c(C)nn(C)c2C2=N[C@@H](C(C)C)CN12 [R1=CH3, R2=CH3, R3=CH3, R4=H, R5=i-C3H7 (S-isomer)] ? 70

What do you get for CC1=Nc2c(C)nn(C)c2C2=NC(C)CN12 (racemic) [R1=CH3, R2=CH3, R3=CH3, R4=H, R5=CH3 (Racemate)] ? 32

What do you get for CCC1=Nc2c(C)nn(CC)c2C2=NC(C)CN12 (stereo not drawn) [R1=C2H5, R2=CH3, R3=C2H5, R4=H, R5=CH3] ? 50

What do you get for CC1=Nc2c(C)nn(C)c2C2=NCC(C)(C)N12 [R1=CH3, R2=CH3, R3=CH3, R4=(CH3)2, R5=H2] ? 80

What do you get for CCC1=Nc2c(C)nn(C)c2C2=NCC(C)N12 (stereo not drawn) [R1=CH3, R2=CH3, R3=C2H5, R4=CH3, R5=H] ? 52

What do you get for CCC1CN2C(C)=Nc3c(C)nn(C)c3C2=N1 (stereo not drawn) [R1=CH3, R2=CH3, R3=CH3, R4=H, R5=C2H5] ? 32

What do you get for CC1=Nc2c(C)nn(C)c2C2=NC(C)C(C)N12 (stereo not drawn) [R1=CH3, R2=CH3, R3=CH3, R4=CH3, R5=CH3] ? 57
